meta.source: PubChem BioAssay AID504652

# assayedTarget: D(1A) dopamine receptor (Homo sapiens)
# assay: Antagonist of Human D 1 Dopamine Receptor: qHTS
# testContext: HEK293 TREx D1 cells, calcium flux, dopamine EC80; at 10 µM
The whole screen tested about 360,000 compounds, of which about 11,000 (3.1%) were called active. No stated cut-off is given here; in the data, active means activity change below about -30%; inactive means the rest. Many of the other results were omitted from the sample, so actives are more common in it than they were.
Returns: one label drawn from active, inactive

See these solved cases before continuing.
CCc1nc2ccc(C(=O)N3CCN(c4cc(Cl)ccc4C)CC3)cc2nc1CC : inactive
Cc1c(C(=O)N2CC(C)OC(C)C2)sc2nc(-c3ccccc3)cn12 (stereo unspecified) : active
CCOc1ccc(CNC(=O)c2cc(-c3ccc(Cl)s3)nc3ccccc23)cc1 : inactive
Cc1c(C(=O)NCC2CCCO2)sc2nc(-c3ccccc3)cn12 (stereo unspecified) : inactive
O=C(c1cc(COc2ccc(F)c(F)c2)on1)N1CCOCC1 : inactive
Cn1c(CN2CCOCC2)nc2cc(NC(=O)c3ccc(Cl)cc3)ccc21 : inactive
COC(=O)c1cc(S(=O)(=O)N2CCN(c3cc(Cl)ccc3C)CC2)c[nH]1 : inactive
Cc1cccc(CS(=O)(=O)c2ncc(Cl)c(C(=O)Nc3ccc(F)cc3)n2)c1 : active
O=C1CC(c2cccc(Cl)c2)CC(O)=C1C=Nc1ccccc1 (stereo unspecified) : inactive
Cc1cccc(OCCSc2nc3ccccc3n2CC(=O)N2CCCCC2)c1C : inactive

Okay, next one:
Ask | Name the outcome recorded for COc1ccc(N2CCN(S(=O)(=O)CCNC(=O)C(c3ccccc3)c3ccccc3)CC2)cc1 in the assay.
Reply | inactive
